# target: UniProt:P29274
# Sequence (P29274 whole entry): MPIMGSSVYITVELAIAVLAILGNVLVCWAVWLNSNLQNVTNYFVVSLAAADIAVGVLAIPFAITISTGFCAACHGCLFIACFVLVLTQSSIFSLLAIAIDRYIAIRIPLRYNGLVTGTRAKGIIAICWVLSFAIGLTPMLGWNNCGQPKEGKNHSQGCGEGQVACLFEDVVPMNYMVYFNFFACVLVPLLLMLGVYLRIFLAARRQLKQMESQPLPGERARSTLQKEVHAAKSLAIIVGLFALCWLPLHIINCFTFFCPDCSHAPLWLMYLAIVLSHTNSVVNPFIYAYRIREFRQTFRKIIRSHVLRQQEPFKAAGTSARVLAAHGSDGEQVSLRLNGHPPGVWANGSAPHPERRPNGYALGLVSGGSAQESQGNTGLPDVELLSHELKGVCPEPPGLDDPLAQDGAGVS
# protocol.description: cAMP assay in 293A cells stably expressing the adenosine A2A receptor (CGS21680 stimulation, HTRF)
# Format: cell-based
# Parameters: expressed in transfected cells; host or cells: 293A cells (Invitrogen, Cat# R705-07) infected with A2A-expressing lentivirus (custom packaged by Biosettia), puromycin selected
# setup.conditions: 293A-A2AR cells, 0.1% BSA, 1 uM CGS; read-out: cAMP (nM) 0.1% BSA, 1 uM CGS
# IC50 values compiled below
observable: IC50

- cpd.smiles: "Cc1cc(-c2c(OCc3cccc(N4CCC(C)(O)CC4)n3)nc(N)nc2-c2ccc(F)cc2)cc(C(F)F)n1"
  reported: "> 25000 nM"
- cpd.smiles: "Cc1cc(-c2c(OCc3cccc(N4CCC[C@H]4C(=O)O)n3)nc(N)nc2-c2ccc(F)cc2)cc(C(F)F)n1"
  reported: "> 10000 nM"
- cpd.smiles: "CCn1c(COc2nc(N)nc(-c3ccc(F)cc3)c2-c2cc(C)nc(C(F)F)c2)nc2cccc(C(=O)O)c21"
  reported: "> 25000 nM"
- cpd.smiles: "CCc1c(COc2nc(N)nc(-c3ccc(F)cc3)c2-c2cc(C)nc(C(F)F)c2)nnn1C[C@H](O)CO"
  reported: "1430 nM"
- cpd.smiles: "Cc1cc(-c2c(OCCOc3cccc(N(C)CCO)n3)nc(N)nc2-c2ccc(F)cc2)cc(C(F)F)n1"
  reported: "7.16 nM"
- cpd.smiles: "CCc1nn(CC(C)(C)C(=O)O)nc1COc1nc(N)nc(-c2ccc(F)cc2)c1-c1cc(C)nc(C(F)F)c1"
  reported: "> 10000 nM"
- cpd.smiles: "Cc1cc(-c2c(OCc3nnnn3CC(C)(C)O)nc(N)nc2-c2ccc(F)cc2)cc(C(F)F)n1"
  reported: "708 nM"
- cpd.smiles: "Cc1cc(-c2c(OCc3cc4ccccc4o3)nc(N)nc2-c2ccc(F)cc2)cc(C(F)F)n1"
  reported: "648 nM"
- cpd.smiles: "Cc1cc(-c2c(OCc3cc4c(s3)CCCC4)nc(N)nc2-c2ccc(F)cc2)cc(C(F)F)n1"
  reported: "3990 nM"
- cpd.smiles: "Cc1cc(-c2c(OCc3cccc(N(C)CCC(=O)O)n3)nc(N)nc2-c2ccc(F)cc2)cc(C(F)F)n1"
  reported: "4510 nM"
- cpd.smiles: "CCn1c(COc2nc(N)nc(-c3ccc(F)cc3)c2-c2cc(C)nc(C(F)F)c2)n[nH]c1=O"
  reported: "4080 nM"

====

# Test system: p-CREB (phosphorylated cAMP response-element binding protein) in human whole blood
# protocol.description: p-CREB assay in human whole blood by flow cytometry (NECA stimulation, CD4 staining)
# Type: cell-based
# setup.conditions: Homo sapiens, replicate values separated by /
# IC50 values compiled below

- cpd.smiles: "Cc1cc(-c2c(OCc3ccnc(N)n3)nc(N)nc2-c2ccc(F)cc2)cc(C(F)F)n1"
  IC50 / nM: 50.2
- cpd.smiles: "Cc1cc(-c2c(OCc3cccc(C(C)(C)NCCO)n3)nc(N)nc2-c2ccc(F)cc2)cc(C(F)F)n1"
  IC50 / nM: 91.5
- cpd.smiles: "Cc1cc(-c2c(OCc3cccc(CNC(CO)CO)n3)nc(N)nc2-c2ccc(F)cc2)cc(C(F)F)n1"
  IC50 / nM: 87.8
